Attribution: ChEMBL document CHEMBL1135117

Assay Text: Compound was tested for its half life in rat
Assay type: ADME, organism-based
Conditions Used: in vivo
Readout Label: half-life (h)
API: value field is a number in h; no unit string.

Per the records, this molecule ( O=C(Cn1cc(C(F)(F)F)ccc1=O)NCc1cc2cc(C(=O)N3CCC(N4C(=O)OCc5ccccc54)CC3)c(F)cc2o1 ) has half-life equal to 1.3

Per the records, this molecule ( O=C(c1ccc2oc(-c3cccc(Cn4cc(C(F)(F)F)ccc4=O)c3)cc2c1)N1CCC(N2C(=O)OCc3ccccc32)CC1 ) has half-life equal to 2.2

Per the records, this molecule ( O=C(Cn1cc(C(F)(F)F)ccc1=O)NCc1cc2cc(C(=O)N3CCC(N4C(=O)OCc5ccc(Cl)cc54)CC3)ccc2o1 ) has half-life equal to 1

Per the records, this molecule ( O=C(Cn1cc(C(F)(F)F)ccc1=O)NCc1cc2cc(C(=O)N3CCC(N4C(=O)CCc5ccccc54)CC3)ccc2o1 ) has half-life equal to 1.1

Per the records, this molecule ( O=C(Cn1ccc(N2CCOCC2)nc1=O)NCc1cc2cc(C(=O)N3CCC(N4C(=O)OCc5ccccc54)CC3)ccc2o1 ) has half-life equal to 0.8

Per the records, this molecule ( O=C(c1ccc2oc(CN3CCC[C@@H](n4cc(C(F)(F)F)ccc4=O)C3)cc2c1)N1CCC(N2C(=O)OCc3ccccc32)CC1 ) has half-life equal to 0.6

Per the records, this molecule ( COc1cc(OC2CCN(C(C)=O)CC2)ccc1C(=O)N1CCC(N2C(=O)OCc3ccccc32)CC1 ) has half-life equal to 1.1

Per the records, this molecule ( O=C(Cn1ccc2ccccc2c1=O)NCc1cc2cc(C(=O)N3CCC(N4C(=O)OCc5ccccc54)CC3)ccc2o1 ) has half-life equal to 0.8

Per the records, this molecule ( CCOc1ccn(CC(=O)NCc2cc3cc(C(=O)N4CCC(N5C(=O)OCc6ccccc65)CC4)ccc3o2)c(=O)n1 ) has half-life equal to 0.8

Per the records, this molecule ( O=C(Cn1cc(C(F)(F)F)ccc1=O)NCc1cc2cc(C(=O)N3CCC(N4C(=O)OCc5cccc(F)c54)CC3)ccc2o1 ) has half-life equal to 1.2

Per the records, this molecule ( O=C(Cn1cc(C(F)(F)F)ccc1=O)NCc1cc2cc(C(=O)N3CCC(N4C(=O)OCc5ccccc54)CC3)cnc2o1 ) has half-life equal to 0.6
